B1: TPR t1 (parent)
chain: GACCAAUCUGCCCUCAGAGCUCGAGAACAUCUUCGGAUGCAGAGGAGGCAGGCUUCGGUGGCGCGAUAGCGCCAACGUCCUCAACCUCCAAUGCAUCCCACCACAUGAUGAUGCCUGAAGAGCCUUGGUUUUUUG

Variants of: B1
Assay: polymerase ribozyme fitness, log enrichment relative to wild type (log ratio); higher = more active; in vitro selection for triplet polymerase activity
Use -2 as the dividing line for polymerase ribozyme fitness (log ratio), with the line itself on the y side and lower values as n.

C72A C123G; y
A37C C123G; y
U9C U59C A84U C104A C114U; n

polymerase ribozyme fitness (log ratio) >= -2 for C22G U32G C49A G61U U87C ?
n

What about C76A U78A U96A ?
y

What about C13G C20U G48A ?
n

What about C56G G63A ?
n

What about C8U G48U A50U G69U C86U U96A ?
y
